protocol_details: Effects of mouse serum on in vitro degradation of peptides (HPLC)
Type: in vitro ADME
assay_conditions: Swiss TO, pH 7.8; intact peptide peak; incubation time 2 h; mouse serum, 37° C.; read-out: % Total CCK-like material
Protocol: Effects of mouse serum on degradation of CCK-8, Asp^1glucitol CCK-8 and pGlu-Gln CCK-8. Serum (20 μl) from fasted Swiss TO mice was incubated at 37° C. with 10 μg of either native CCK-8, Asp^1-glucitol CCK-8 or pGlu-Gln CCK-8 for periods up to 2 h in a reaction mixture (final vol. 500 μl ) containing 50 mmol/l triethanolamine/HCl buffer pH 7.8. The reaction was stopped by addition of 5 μl of TFA and the final volume adjusted to 1.0 ml using 0.1% (v/v) TFA/water. […]
measured_quantity: remaining at 2 h, 20 µg/ml (%)
Output spec: scalar in %, unitless text.

stdin: Please report remaining at 2 h, 20 µg/ml for the following compound: "CSCC[C@H](NC(=O)[C@H](Cc1ccc(OS(=O)(=O)O)cc1)NC(=O)[C@@H](N)CC(=O)O)C(=O)NCC(=O)N[C@@H](Cc1c[nH]c2ccccc12)C(=O)N[C@@H](CCSC)C(=O)N[C@@H](CC(=O)O)C(=O)N[C@@H](Cc1ccccc1)C(N)=O"
stdout: 0
